Provenance of the data: paper PMC5333395

Biological target: UniProtKB Q9UGL1
Sequence (Q9UGL1 whole entry): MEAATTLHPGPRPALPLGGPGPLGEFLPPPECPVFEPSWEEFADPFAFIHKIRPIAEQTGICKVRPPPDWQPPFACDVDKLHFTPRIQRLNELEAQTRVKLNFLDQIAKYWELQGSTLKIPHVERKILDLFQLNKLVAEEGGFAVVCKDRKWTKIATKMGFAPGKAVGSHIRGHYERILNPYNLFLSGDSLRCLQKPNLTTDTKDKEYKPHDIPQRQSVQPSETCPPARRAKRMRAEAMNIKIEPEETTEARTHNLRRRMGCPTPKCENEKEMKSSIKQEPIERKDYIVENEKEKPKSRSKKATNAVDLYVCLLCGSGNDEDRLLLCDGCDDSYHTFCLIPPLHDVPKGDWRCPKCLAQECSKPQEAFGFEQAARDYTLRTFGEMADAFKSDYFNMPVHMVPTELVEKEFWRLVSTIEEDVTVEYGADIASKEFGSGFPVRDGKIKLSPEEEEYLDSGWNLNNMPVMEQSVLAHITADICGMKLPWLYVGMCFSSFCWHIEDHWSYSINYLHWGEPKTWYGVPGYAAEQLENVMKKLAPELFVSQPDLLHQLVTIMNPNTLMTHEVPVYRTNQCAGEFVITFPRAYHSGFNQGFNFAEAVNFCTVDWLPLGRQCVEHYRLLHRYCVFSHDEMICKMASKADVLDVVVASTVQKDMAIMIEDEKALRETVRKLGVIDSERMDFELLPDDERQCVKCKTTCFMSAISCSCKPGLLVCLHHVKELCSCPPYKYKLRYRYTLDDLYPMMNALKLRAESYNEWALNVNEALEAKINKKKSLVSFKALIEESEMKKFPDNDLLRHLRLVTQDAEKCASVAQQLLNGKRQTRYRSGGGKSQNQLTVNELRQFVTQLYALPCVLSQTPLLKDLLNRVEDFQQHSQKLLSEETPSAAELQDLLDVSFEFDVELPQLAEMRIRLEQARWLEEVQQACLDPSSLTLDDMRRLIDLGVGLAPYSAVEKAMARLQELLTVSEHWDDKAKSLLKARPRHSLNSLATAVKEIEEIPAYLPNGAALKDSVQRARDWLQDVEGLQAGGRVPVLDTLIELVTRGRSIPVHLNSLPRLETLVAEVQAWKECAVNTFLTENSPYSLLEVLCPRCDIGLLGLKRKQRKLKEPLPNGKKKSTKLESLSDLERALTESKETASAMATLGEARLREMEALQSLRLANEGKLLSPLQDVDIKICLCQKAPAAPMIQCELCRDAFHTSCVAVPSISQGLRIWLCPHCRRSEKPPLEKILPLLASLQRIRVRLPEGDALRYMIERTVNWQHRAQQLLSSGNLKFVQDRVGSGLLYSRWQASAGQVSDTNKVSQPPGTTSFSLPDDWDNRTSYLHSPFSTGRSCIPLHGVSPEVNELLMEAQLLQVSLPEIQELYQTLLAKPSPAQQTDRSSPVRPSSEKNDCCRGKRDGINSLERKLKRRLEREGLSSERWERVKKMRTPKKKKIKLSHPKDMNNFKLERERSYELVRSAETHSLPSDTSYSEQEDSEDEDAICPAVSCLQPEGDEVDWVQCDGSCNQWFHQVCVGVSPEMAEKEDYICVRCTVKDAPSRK
Assay: High-content immunofluorescence (IF) assay, overexpressed full-length FLAG-tagged KDM in HeLa cells
Format: cell-based
Parameters: transiently transfecting the full-length FLAG-tagged demethylase (WT) into cells; expressed in transfected cells; host or cells: HeLa
Conditions: HeLa cells overexpressing WT KDM5B, H3K4me3 mark, 24 h; read-out: KDM5B, in cells, EC50 by IF assay (head: IC50)
EXPERIMENTAL_READOUT: EC50

[[record]]
smiles_repr = "CCN(CCN(C)C)C(=O)CNCc1cncc(C(N)=O)c1"
experimental_readout = "EC50"
experimental_value = "> 100 µM"

[[record]]
smiles_repr = "O=c1[nH]cnc2c(-n3cc(CCN4CCC(c5cccc(Cl)c5)CC4)cn3)cccc12"
experimental_readout = "EC50"
experimental_value = "> 100 µM"


Consider the additional molecule presented here.
What value of EC50 has been reported for the following molecule? `Clc1ccc(N/N=C(/c2ccccc2)c2ccccn2)nc1`
> 100 µM
